- run-description: Primary qHTS for inhibitors of nuclear receptor binding SET domain protein 2 (NSD2) in an isogenic RCH-ACV NSD2 p.E1099K mutant (9B) (AID 1645876); further: potency means the concentration at half of the fitted maximal effect; nearly all actives have a fitted effect of over 70% in size
- experimental-context: RCH-ACV (leukaemia line) NSD2 E1099K (9B) viability, CellTiter-Glo, 72 h; series mostly up to 44.9 µM
Results filed as inconclusive are left out. Activity calls are given as the source filed them. The call rests on the fitted dose curve; in most records, active means well fitted inhibition curve with a large enough effect; inconclusive means small, poorly fitted or top-dose-only effect; inactive means flat fitted curve, though single readings scatter. Where a SMILES comes first, the peptide text is derived from it. The star is where a group is joined. Cbz = O=C(OCc1ccccc1)*; CH2Cl = ClC*

compound | Potency
CC1(C)CC[C@]23CO[C@@]4(CCC5[C@@]6(C)CC[C@H](O[C@@H]7OC[C@H](O[C@@H]8O[C@H](CO)[C@@H](O)[C@H](O)[C@H]8O[C@@H]8OC[C@@H](O)[C@H](O)[C@H]8O)[C@H](O)[C@H]7O[C@@H]7O[C@H](CO)[C@@H](O)[C@H](O)[C@H]7O)[C@@](C)(CO)C6CC[C@@]5(C)[C@]4(C)C[C@H]2O)[C@@H]3C1 (some centres not stated) | 1.54 µM (active)
CCNC(=O)c1noc(-c2cc(Cl)c(O)cc2O)c1-c1ccc(OC)cc1 | 0.129 µM (active)
CCCCc1c(-c2ccc(OC)cc2)[nH]c2nccnc12 | 3.65 µM (active)
CC(C)C[C@H](NC(=O)CNC(=O)OCc1ccccc1)C(=O)N[C@@H](Cc1ccccc1)C(=O)CCl (Cbz-Gly-Leu-Phe-CH2Cl) | 7.28 µM (active)
CC(C)=CCCC1(C)/C=C/C(OC(=O)C=C(C)C)C(C)(O)/C=C/C(=O)/C(CO)=C\C1 (configuration not stated) | 11.2 µM (active)
N#Cc1ccc(COC[C@H]2O[C@@H](n3c(NCc4ccc(Cl)c(Cl)c4)nc4c(N)ncnc43)[C@H](O)[C@@H]2O)cc1 | 14.8 µM (active)
C=C(C)C(=O)OC1CC2(C)OC(=CC2=O)C(=C)CC2OC(=O)C(=C)C12 (configuration not stated) | 0.8 µM (active)
